- TARGET_UNDER_TEST: full length (FL) LXRβ (Homo sapiens, UniProt P55055, DUP175-175)
- Construct: the full length (FL) proteins of LXRα (amino acids 1-447); NP005684; NP009052; expressed in transfected cells; host or cells: HEK293
- Sequence (P55055 with tags, fused parts or gaps DUP175-175): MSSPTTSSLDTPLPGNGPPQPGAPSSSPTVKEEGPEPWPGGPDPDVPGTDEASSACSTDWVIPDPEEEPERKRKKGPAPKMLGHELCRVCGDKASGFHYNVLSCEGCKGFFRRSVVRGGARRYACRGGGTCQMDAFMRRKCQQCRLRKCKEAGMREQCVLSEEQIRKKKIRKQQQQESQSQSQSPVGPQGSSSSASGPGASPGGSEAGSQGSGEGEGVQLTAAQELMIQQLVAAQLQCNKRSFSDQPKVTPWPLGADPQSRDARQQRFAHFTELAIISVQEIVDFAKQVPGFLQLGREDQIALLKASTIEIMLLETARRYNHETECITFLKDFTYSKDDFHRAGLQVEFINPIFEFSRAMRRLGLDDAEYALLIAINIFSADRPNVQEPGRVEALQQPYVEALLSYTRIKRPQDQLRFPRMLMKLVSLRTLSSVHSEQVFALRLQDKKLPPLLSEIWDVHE
- ASSAY_PROCEDURE: LXR Gal4 reporter transient transfection assay (FL-M2H Gal4β)
- Format: cell-based
- CONDITION_DESCRIPTION: HEK293 cells, full length LXRβ; read-out: FL-M2H Gal4β (EC50 range)
- Protocol: The tested compounds were usually dissolved, tested and stored as 20 mM stock solutions in DMSO. […] LXRα and LXRβ activity status was determined via detection of interaction with coactivator and corepressor proteins in mammalian two-hybrid experiments (M2H). […] Interaction was monitored via activation of a coexpressed Firefly Luciferase Reporter gene under control of a promoter containing repetitive GAL4 response elements (vector pFRLuc; Stratagene). […]
The entries below come with measured EC50 values attached.

| COMPOUND | EC50 |
| --- | --- |
| COc1cc(-c2cccc(-c3c(-c4ccsc4C#N)c4cc(F)ccc4n3S(=O)(=O)c3ccc(C)cc3)c2)c(Cl)cc1C(=O)O | < 100 nM |
| Cc1cc(S(=O)(=O)n2c(-c3cccc(-c4ccc(C(=O)O)cc4Cl)c3)c(-c3ccsc3C#N)c3cc(F)ccc32)ccc1F | < 100 nM |
| Cc1ccc(S(=O)(=O)n2c(-c3cccc(N4CC(C(=O)O)C4)c3)c(-c3ccsc3CCO)c3cc(F)ccc32)cc1 | 100 to 1000 nM |
| Cc1ccc(S(=O)(=O)n2c(-c3cccc(C4(C)CC4C(=O)O)c3)c(-c3ccsc3C#N)c3cc(F)ccc32)cc1 (stereo not shown) [3/2] | < 100 nM |
| O=C(O)c1ccc(-c2cccc(-c3c(-c4ccccc4C4COC4)c4cnccc4n3S(=O)(=O)c3ccc(C(F)F)cc3)c2)c(Cl)c1 | < 100 nM |
| N#Cc1sccc1-c1c(-c2cccc(-c3ccc(C(=O)O)cc3Cl)c2)n(S(=O)(=O)c2ccc(C(F)F)cc2)c2ccc(F)cc12 | < 100 nM |
| COc1cccc(-c2c(-c3cccc(-c4ccc(C(=O)O)cc4Cl)c3)n(S(=O)(=O)c3ccc(C)cc3)c3ccc(F)cc23)c1C#N | < 100 nM |
| N#Cc1sccc1-c1c(-c2cccc(-c3ccc(C(=O)O)cc3Cl)c2)n(S(=O)(=O)c2ccc(C(F)F)nc2)c2ccc(F)cc12 | < 100 nM |
| O=C(O)c1ccc(-c2cccc(-c3c(-c4ncccc4N4CC(O)C4)c4cc(F)ccc4n3S(=O)(=O)c3ccc(C(F)F)cc3)c2)c(Cl)c1 | 100 to 1000 nM |
| N#Cc1cccc(C#N)c1-c1c(-c2cccc(C34CCC(C(=O)O)(CC3)CC4)c2)n(S(=O)(=O)c2ccc(C(F)F)cc2)c2ccc(F)cc12 | < 100 nM |
| Cc1ccc(S(=O)(=O)n2c(-c3cccc(-c4ccc(C(=O)O)cc4)c3)c(-c3ccsc3C#N)c3cc(F)cc(O)c32)cc1 | < 100 nM |
| CC(=O)NS(=O)(=O)c1ccc(-c2cccc(-c3c(-c4c(C#N)cccc4C#N)c4cc(F)ccc4n3S(=O)(=O)c3ccc(C(F)F)cc3)c2)c(Cl)c1 | < 100 nM |
| O=C(O)c1ccc(-c2cccc(-c3c(-c4ccccc4C4(F)CNC4)c4cc(F)ccc4n3S(=O)(=O)c3ccc(C(F)F)cc3)c2)c(Cl)c1 | 100 to 1000 nM |

* * *

The entries below come with measured pEC50 values attached.
- TARGET_UNDER_TEST: ligand-binding domain (LBD) of LXRβ (Homo sapiens, UniProt P55055, DUP175-175)
- Construct: LXRβ (amino acids 156-461); expressed in transfected cells; host or cells: HEK293
- Sequence (P55055 with tags, fused parts or gaps DUP175-175 limits assumed): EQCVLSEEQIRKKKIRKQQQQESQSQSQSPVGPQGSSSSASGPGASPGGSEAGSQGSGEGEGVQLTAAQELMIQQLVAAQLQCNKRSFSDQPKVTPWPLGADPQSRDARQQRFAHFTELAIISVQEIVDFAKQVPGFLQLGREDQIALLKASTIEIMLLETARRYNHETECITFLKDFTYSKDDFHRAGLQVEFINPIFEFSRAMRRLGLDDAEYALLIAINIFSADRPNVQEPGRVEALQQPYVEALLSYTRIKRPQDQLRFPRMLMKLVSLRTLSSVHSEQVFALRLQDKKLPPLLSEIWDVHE
- ASSAY_PROCEDURE: LXR Gal4 reporter transient transfection assay (LBD-M2H Gal4β)
- Assay type: cell-based
- CONDITION_DESCRIPTION: HEK293 cells, LXRβ LBD; read-out: LBD-M2H Gal4β (EC50 range)
pEC50: −log10 of the molar value.
MEASURED_PROPERTY: pEC50

| MOLECULE | TARGET_UNDER_TEST | EXPERIMENTAL_VALUE |
| --- | --- | --- |
| Cc1cccc(S(=O)(=O)n2c(-c3cccc(N4CC(C(=O)O)C4)c3)c(-c3ccsc3C#N)c3cc(F)ccc32)c1 | ligand-binding domain (LBD) of LXRβ (Homo sapiens, UniProt P55055, DUP175-175) | > 7.00 |
| N#Cc1sccc1-c1c(-c2ccccc2)n(S(=O)(=O)c2cccnc2)c2ccccc12 | ligand-binding domain (LBD) of LXRβ (Homo sapiens, UniProt P55055, DUP175-175) | > 7.00 |
| COc1ccc(S(=O)(=O)n2c(-c3ccc(CCC(N)=O)cc3)c(-c3ccsc3C#N)c3ccccc32)cc1 | ligand-binding domain (LBD) of LXRβ (Homo sapiens, UniProt P55055, DUP175-175) | 6.00 to 7.00 |
| N#Cc1sccc1-c1c(-c2cccs2)n(S(=O)(=O)c2ccc(Cl)cc2)c2cc(OCCCCC(=O)O)ccc12 | ligand-binding domain (LBD) of LXRβ (Homo sapiens, UniProt P55055, DUP175-175) | > 7.00 |
| N#Cc1sccc1-c1c(-c2ccc(C3CC3C(=O)O)s2)n(S(=O)(=O)c2ccc(Cl)cc2)c2ccccc12 (stereo not shown) | ligand-binding domain (LBD) of LXRβ (Homo sapiens, UniProt P55055, DUP175-175) | 6.00 to 7.00 |
| COC(=O)CCc1ccc(S(=O)(=O)n2c(-c3cccs3)c(-c3ccsc3C#N)c3ccccc32)cc1 | ligand-binding domain (LBD) of LXRβ (Homo sapiens, UniProt P55055, DUP175-175) | 6.00 to 7.00 |
| N#Cc1sccc1-c1c(-c2ccccc2)n(S(=O)(=O)c2ccc(OCC(=O)O)cc2)c2ccccc12 | ligand-binding domain (LBD) of LXRβ (Homo sapiens, UniProt P55055, DUP175-175) | 6.00 to 7.00 |
| COc1ccc2c(-c3ccsc3C#N)c(-c3cccs3)n(S(=O)(=O)c3ccc(Cl)cc3)c2c1 | ligand-binding domain (LBD) of LXRβ (Homo sapiens, UniProt P55055, DUP175-175) | > 7.00 |
| O=S(=O)(c1ccc(Cl)cc1)n1c(-c2cccs2)c(-c2ccsc2Cl)c2ccccc21 | ligand-binding domain (LBD) of LXRβ (Homo sapiens, UniProt P55055, DUP175-175) | > 7.00 |
| NC(=O)c1sccc1-c1c(-c2cccs2)n(S(=O)(=O)c2ccc(Cl)cc2)c2ccccc12 | ligand-binding domain (LBD) of LXRβ (Homo sapiens, UniProt P55055, DUP175-175) | 6.00 to 7.00 |
| N#Cc1sccc1-c1c(-c2cccc(OCC(=O)O)c2)n(S(=O)(=O)c2ccc(Cl)cc2)c2ccccc12 | ligand-binding domain (LBD) of LXRβ (Homo sapiens, UniProt P55055, DUP175-175) | 6.00 to 7.00 |
| Cn1cnc(S(=O)(=O)n2c(-c3cccs3)c(-c3ccsc3C#N)c3ccccc32)c1 | ligand-binding domain (LBD) of LXRβ (Homo sapiens, UniProt P55055, DUP175-175) | > 7.00 |
| N#Cc1sccc1-c1c(-c2ccc(F)cc2)n(S(=O)(=O)c2ccc(Cl)cc2)c2ccccc12 | ligand-binding domain (LBD) of LXRβ (Homo sapiens, UniProt P55055, DUP175-175) | > 7.00 |

* * *

- ASSAY_PROCEDURE: Short term HFD mouse model: plasma and liver exposure
- Format: in vivo, mice (C57BL/6J)
- CONDITION_DESCRIPTION: HFD mice, three oral doses of 10 mg/kg, 4 h after last dose
- Description: Short Term HFD Mouse Model: The in vivo transcriptional regulation of several LXR target genes by LXR modulators was assessed in mice. For this, C57BL/6J were purchased from Elevage Janvier (Rennes, France) at the age of 8 weeks. After an acclimation period of two weeks, animals were preferred on a high fat diet (HFD) (Ssniff Spezialdiäten GmbH, Germany, Surwit EF D12330 mod, Cat. No. E15771-34), with 60 kcal % from fat plus 1% (w/w) extra cholesterol (Sigma-Aldrich, St. Louis, Mo.) for 5 days. […]
MEASURED_PROPERTY: liver/plasma ratio 4 h

| MOL_SMILES | MEASURED_PROPERTY | EXPERIMENTAL_VALUE |
| --- | --- | --- |
| N#Cc1cccc(C#N)c1-c1c(-c2cccc(-c3ccc(C(=O)O)cc3Cl)c2)n(S(=O)(=O)c2ccc(C(F)(F)F)nc2)c2ccc(F)cc12 | liver/plasma ratio 4 h | C (30 to ≤100) |
| N#Cc1cccc(C#N)c1-c1c(-c2cccc(-c3ccc(C(=O)NCCS(=O)(=O)O)cc3Cl)c2)n(S(=O)(=O)c2ccc(C(F)F)cc2)c2ccc(F)cc12 | liver/plasma ratio 4 h | C (30 to ≤100) |
| N#Cc1cccc(C#N)c1-c1c(-c2cccc(-c3cc(F)c(C(=O)O)cc3Cl)c2)n(S(=O)(=O)c2ccc(C(F)F)cc2)c2ccc(F)cc12 | liver/plasma ratio 4 h | C (30 to ≤100) |
| N#Cc1cccc(C#N)c1-c1c(-c2cccc([C@H]3CC[C@H](C(=O)O)CC3)c2)n(S(=O)(=O)c2ccc(C(F)F)cc2)c2ccc(F)cc12 | liver/plasma ratio 4 h | B (5 to ≤30) |
| CN(CCS(=O)(=O)O)C(=O)c1ccc(-c2cccc(-c3c(-c4c(C#N)cccc4C#N)c4cc(F)ccc4n3S(=O)(=O)c3ccc(C(F)F)cc3)c2)c(Cl)c1 | liver/plasma ratio 4 h | B (5 to ≤30) |
| N#Cc1cccnc1-c1c(-c2cccc(-c3ccc(C(=O)O)cc3Cl)c2)n(S(=O)(=O)c2ccc(C(F)F)cc2)c2ccc(F)cc12 | liver/plasma ratio 4 h | C (30 to ≤100) |
